Tested on: NCI-H23
Assay: NCI tumour cell line growth inhibition, 48 h
Calls of active or inactive are those of the source. Rule as the data show it: active = GI50 up to about 1.1 µM and inactive = higher.
PARAMETER MEASURED: GI50

Worked cases, answers included:
| COMPOUND | TARGET OR TEST SYSTEM | GI50 |
| --- | --- | --- |
| COc1nc(NC2OCC(O)C(O)C2O)c(NC2OCC(O)C(O)C2O)c(=O)n1C (stereo not given) | NCI-H23 | > 100 µM (inactive) |
| O=C(O)CSC(NC(=O)C(C(F)(F)F)C(F)(F)F)(C(F)(F)F)C(F)(F)F | NCI-H23 | > 100 µM (inactive) |
| CC(C)=CC1C(COC(=O)c2ccccc2Cl)C1(C)C (stereo not given) | NCI-H23 | 31.8 µM (inactive) |
| Brc1cccc(/C=C/CN2CCN(CCOC(c3ccccc3)c3ccccc3)CC2)c1 | NCI-H23 | 16.5 µM (inactive) |

Exercise: Specify GI50 for C=CCC1(O)c2cccc(O)c2C(=O)c2c(O)cccc21 and stop.
Solution: 24.7 µM (inactive)

Origin of the recorded values: ChEMBL document CHEMBL1201862
